Biological target: ProLink tagged human CXCR4 (C2C12 CXCR4 β-Arrestin cell line) (human, UniProt P61073 1-352)
Sequence (P61073 whole entry): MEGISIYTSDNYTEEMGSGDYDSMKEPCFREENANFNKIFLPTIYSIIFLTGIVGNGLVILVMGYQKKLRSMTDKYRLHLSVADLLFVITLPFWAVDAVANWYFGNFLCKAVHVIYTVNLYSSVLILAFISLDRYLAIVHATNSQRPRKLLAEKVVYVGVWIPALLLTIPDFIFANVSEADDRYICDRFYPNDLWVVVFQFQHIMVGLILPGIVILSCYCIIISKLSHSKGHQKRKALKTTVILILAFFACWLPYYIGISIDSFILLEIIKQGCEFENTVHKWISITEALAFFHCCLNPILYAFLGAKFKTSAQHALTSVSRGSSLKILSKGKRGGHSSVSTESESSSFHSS
Experiment: cell-based or functional assay
Square brackets hold non-standard residues; d marks the D form. Ends that are not written are not given here.
Exercise: for every item that follows, state its recorded IC50 for Inhibition of CXCR4 Activation (β-Arrestin recruitment).
Please give a number only; it is taken to be in nM.

Req: Can you look up the measured IC50 for Inhibition of CXCR4 Activation (β-Arrestin recruitment) of LERYHHTVRSSLRPYTK [SEQ ID NO: 39] for me?
Resp: 3

Req: Check LERYNHS[dA]RSSLRPYTK [SEQ ID NO: 43] too.
Resp: 14

Req: Check LERYHHSVRSSLR [SEQ ID NO: 21] too.
Resp: 16

Req: Check LERYHHSVRTSLRPYTK [SEQ ID NO: 73] too.
Resp: 4

Req: Check LERYHHSVRSSLRPYSK [SEQ ID NO: 75] too.
Resp: 4

Req: Check LRRYHQSVRSSLRPYTK [SEQ ID NO: 50] too.
Resp: 121

Req: Check LRRYHHSVRSSLRPY [SEQ ID NO: 25] too.
Resp: 51

Req: Check LERYHHS[dA]RSSLRGYTK [SEQ ID NO: 81] too.
Resp: 3

Req: Check LRRYHHS[dA]ESSLRPYTK [SEQ ID NO: 64] too.
Resp: 14

Req: Check LRRYHNSVRSSLRPYTK [SEQ ID NO: 44] too.
Resp: 32

Req: Check LRRYHHSVRSSL [SEQ ID NO: 28] too.
Resp: 4

Req: Check LERYHHSVRSTLRPYTK [SEQ ID NO: 74] too.
Resp: 5

Req: Check RYHHSVRSSLRPYTK [SEQ ID NO: 11] too.
Resp: 175

Req: Check MLRRYHHSVRSSLRPYTK [SEQ ID NO: 2] too.
Resp: 11

Req: Check [dA]RRYHHSVRSSLRPYTK [SEQ ID NO: 33] too.
Resp: 7

Req: Check LERYHHSVRSSL [SEQ ID NO: 22] too.
Resp: 17

Req: Check LDRYHHSVRSSLRPYTK [SEQ ID NO: 7] too.
Resp: 1.5
